- Test system: T1, human MIC-1 receptor (hGFRAL, GDNF family receptor alpha like), full length (human, UniProt Q6UXV0 19-394)
- T1 sequence (looked up): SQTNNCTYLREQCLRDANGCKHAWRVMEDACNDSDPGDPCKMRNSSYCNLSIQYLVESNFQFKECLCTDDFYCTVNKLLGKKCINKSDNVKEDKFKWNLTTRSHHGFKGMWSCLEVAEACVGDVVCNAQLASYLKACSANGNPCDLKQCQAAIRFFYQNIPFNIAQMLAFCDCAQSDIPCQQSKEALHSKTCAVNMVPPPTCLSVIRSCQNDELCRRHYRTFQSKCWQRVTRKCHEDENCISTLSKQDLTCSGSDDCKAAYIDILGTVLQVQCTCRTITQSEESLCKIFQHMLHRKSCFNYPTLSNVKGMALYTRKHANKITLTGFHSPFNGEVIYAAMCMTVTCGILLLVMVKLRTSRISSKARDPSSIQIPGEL
- Run description: cell-based or functional assay
# label = Y if pERK EC50 (nM) >= 0.6 nM else N

Binder	Class label
TSESATPESGPGTSESATPESGPG-MIC-1(R2A,N3E) (ligand) TSESATPESGPGTSESATPESGPGAAEGDHCPLGPGRCCRLHTVRASLEDLGWADWVLSPREVQVTMCIGACPSQFRAANMHAQIKTSLHRLKPDTVPAPCCVPASYNPMVLIQKTDTGVSLQTYDDLLAKDCHCI	N

hey, is pERK EC50 (nM) for this one >= 0.6 nM? MIC-1(R2A,N3E,R67E) (ligand) AAEGDHCPLGPGRCCRLHTVRASLEDLGWADWVLSPREVQVTMCIGACPSQFRAANMHAQIKTSLHELKPDTVPAPCCVPASYNPMVLIQKTDTGVSLQTYDDLLAKDCHCI
N
